# System: 5-HT2 (Rattus norvegicus)
# Sequence (P14842 whole entry): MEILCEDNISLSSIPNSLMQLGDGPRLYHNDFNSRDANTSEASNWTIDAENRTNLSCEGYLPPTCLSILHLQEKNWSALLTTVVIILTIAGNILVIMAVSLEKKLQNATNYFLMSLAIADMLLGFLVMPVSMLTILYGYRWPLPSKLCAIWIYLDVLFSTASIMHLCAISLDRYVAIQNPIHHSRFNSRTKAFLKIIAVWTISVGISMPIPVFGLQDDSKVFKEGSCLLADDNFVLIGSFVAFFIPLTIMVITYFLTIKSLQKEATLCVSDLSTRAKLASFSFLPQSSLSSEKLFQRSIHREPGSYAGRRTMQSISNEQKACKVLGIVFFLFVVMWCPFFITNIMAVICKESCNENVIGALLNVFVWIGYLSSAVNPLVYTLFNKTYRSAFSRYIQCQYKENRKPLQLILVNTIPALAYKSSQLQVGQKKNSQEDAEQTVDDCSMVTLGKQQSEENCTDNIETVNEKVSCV
Test Readout: Ki
Answer with the figure and its unit, nothing else.

Input: Form field: reported Ki of CCCN(CCC)C1Cc2c[nH]c3ccc(OC)c(c23)C1 (stereo not shown)
Output: 1800 nM
